Test: Hydrophobicity by reverse phase HPLC (log k′, log k′w)
Assay type: physicochemical
Conditions: extrapolated by linear regression to 100% water
Experimental: We have determined the partition coefficients of these nitrones by means of reverse phase high performance liquid chromatography (Lambert, W. J. J. Chromtogr. 656, 469 (1993); Dorsey, J. G.; Kahaledi, M. G. J. Chromtogr. 656, 485 (1993)). […] Experimentally, k′ is determined by the following formula for different methanol/water eluent mixtures. k′=(tR−t0)/t0 […]
Quick list: log k′w per entry.

Known log k′w results, listed for orientation:
compound	valueKind	result
CC(C)(CSCCC(F)(F)C(F)(F)C(F)(F)C(F)(F)C(F)(F)C(F)(F)F)/[N+]([O-])=C/c1ccc(CNC(=O)C(O)[C@H](O)[C@H](O[C@@H]2OC(CO)[C@H](O)[C@H](O)C2O)C(O)CO)cc1 (some centres unmarked) [A3]	log k′w	5.7129
CCCCCCCC(=O)NCC(C)(C)/[N+]([O-])=C/c1ccc(CNC(=O)C(O)[C@H](O)[C@H](O[C@@H]2OC(CO)[C@H](O)[C@H](O)C2O)C(O)CO)cc1 (some centres unmarked) [A1]	log k′w	2.7595
CC(C)(C)[N+]([O-])=Cc1ccccc1 [PBN, α-C-phenyl-N-tert-butylnitrone]	log k′w	1.6447
CC(C)(CNC(=O)CCC(F)(F)C(F)(F)C(F)(F)C(F)(F)C(F)(F)C(F)(F)F)/[N+]([O-])=C/c1ccc(CNC(=O)C(O)[C@H](O)[C@H](O[C@@H]2OC(CO)[C@H](O)[C@H](O)C2O)C(O)CO)cc1 (some centres unmarked) [A4]	log k′w	4.6549

Consider now this further compound.
Field request: log k′w | item: CCCCCCCCSCC(C)(C)/[N+]([O-])=C/c1ccc(CNC(=O)C(O)[C@H](O)[C@H](O[C@@H]2OC(CO)[C@H](O)[C@H](O)C2O)C(O)CO)cc1 (some centres unmarked) [A2]
4.5235
